For each of the compounds below, state its Ki.
Target: α-amylase from porcine pancreas (Sus scrofa)
Construct: A saline suspension of α-amylase from porcine pancreas; purchased Sigma Aldrich (Steinheim, Germany) Lot #SLBN9170V (catalogue number not given); host or cells: porcine pancreas (tissue-derived)
Sequence (P00690 16-511): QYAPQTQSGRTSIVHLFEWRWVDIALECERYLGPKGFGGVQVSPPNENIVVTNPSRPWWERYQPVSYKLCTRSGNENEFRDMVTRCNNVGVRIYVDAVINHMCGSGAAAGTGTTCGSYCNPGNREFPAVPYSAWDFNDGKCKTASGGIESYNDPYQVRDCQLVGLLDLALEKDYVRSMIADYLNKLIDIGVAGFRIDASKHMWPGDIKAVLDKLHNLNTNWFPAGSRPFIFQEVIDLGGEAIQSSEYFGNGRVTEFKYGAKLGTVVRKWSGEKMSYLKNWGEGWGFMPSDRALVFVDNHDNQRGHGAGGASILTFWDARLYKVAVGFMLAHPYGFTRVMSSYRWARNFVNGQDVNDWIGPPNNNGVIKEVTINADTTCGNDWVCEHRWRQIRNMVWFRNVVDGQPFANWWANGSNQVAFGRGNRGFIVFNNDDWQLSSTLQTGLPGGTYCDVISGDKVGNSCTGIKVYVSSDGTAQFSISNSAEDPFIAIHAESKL
Assay: α-amylase enzyme activity assay, GalG2CNP conversion, UV/Vis detection of CNP at 405 nm
Assay type: biochemical
Conditions: from apparent values; inhibitor c 50 µM; read-out: Kiu
Give your result in µM as a bare value.

Lookup: Form: Entry = OC[C@H]1O[C@@H](Oc2cc3c(O)cc(O)cc3[o+]c2-c2ccc(O)c(O)c2)[C@H](O)[C@@H](O)[C@@H]1O [Cyd-glc, cyanidin-3-glucoside] | System = α-amylase from porcine pancreas (Sus scrofa) | Ki = ____
Found: 250

Lookup: Form: Entry = COc1cc(-c2[o+]c3cc(O)cc(O)c3cc2O[C@@H]2O[C@H](CO)[C@@H](O)[C@H](O)[C@H]2O)ccc1O [Peo-glc, peonidin-3-glucoside] | System = α-amylase from porcine pancreas (Sus scrofa) | Ki = ____
Found: 262

Lookup: Form: Entry = OC[C@H]1O[C@@H](Oc2cc3c(O)cc(O)cc3[o+]c2-c2ccc(O)cc2)[C@H](O)[C@@H](O)[C@@H]1O [Plg-glc, pelargonidin-3-glucoside] | System = α-amylase from porcine pancreas (Sus scrofa) | Ki = ____
Found: 163

Lookup: Form: Entry = OC[C@H]1O[C@@H](Oc2cc3c(O)cc(O)cc3[o+]c2-c2cc(O)c(O)c(O)c2)[C@H](O)[C@@H](O)[C@@H]1O [Dpd-glc, delphinidin-3-glucoside] | System = α-amylase from porcine pancreas (Sus scrofa) | Ki = ____
Found: 212

----------
Target: α-amylase from porcine pancreas (Sus scrofa, UniProt P00690)
Construct: A saline suspension of α-amylase from porcine pancreas; purchased Sigma Aldrich (Steinheim, Germany) Lot #SLBN9170V (catalogue number not given); host or cells: porcine pancreas (tissue-derived)
Sequence (P00690 16-511): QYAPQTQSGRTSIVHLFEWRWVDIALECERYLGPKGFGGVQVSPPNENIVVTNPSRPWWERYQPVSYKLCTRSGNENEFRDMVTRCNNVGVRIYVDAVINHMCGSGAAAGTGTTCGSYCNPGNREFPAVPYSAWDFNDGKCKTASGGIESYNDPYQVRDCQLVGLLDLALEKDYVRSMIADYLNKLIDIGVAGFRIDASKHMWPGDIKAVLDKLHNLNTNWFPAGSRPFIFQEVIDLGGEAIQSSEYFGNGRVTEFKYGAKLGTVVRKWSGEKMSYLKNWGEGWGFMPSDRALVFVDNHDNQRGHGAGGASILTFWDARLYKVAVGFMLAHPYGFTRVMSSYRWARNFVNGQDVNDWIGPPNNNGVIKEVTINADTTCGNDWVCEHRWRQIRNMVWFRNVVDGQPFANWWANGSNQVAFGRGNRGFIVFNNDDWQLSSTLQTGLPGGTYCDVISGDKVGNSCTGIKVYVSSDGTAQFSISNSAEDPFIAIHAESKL
Test: α-amylase enzyme activity assay, GalG2CNP conversion, UV/Vis detection of CNP at 405 nm
Type: biochemical
Settings: (i) global fit, Equation (4)
Marks after values point to notes of the source that are not given here.
measurement-name: Kic/Kiu

Lookup: # query: Kic/Kiu of entry OC[C@H]1O[C@@H](Oc2cc3c(O)cc(O)cc3[o+]c2-c2ccc(O)c(O)c2)[C@H](O)[C@@H](O)[C@@H]1O [Cyd-glc, cyanidin-3-glucoside]
Found: 0.45 ± 0.08 ***^a

Lookup: # query: Kic/Kiu of entry OC[C@H]1O[C@@H](Oc2cc3c(O)cc(O)cc3[o+]c2-c2ccc(O)cc2)[C@H](O)[C@@H](O)[C@@H]1O [Plg-glc, pelargonidin-3-glucoside]
Found: 0.39 ± 0.05 ^a

Lookup: # query: Kic/Kiu of entry COc1cc(-c2[o+]c3cc(O)cc(O)c3cc2O[C@@H]2O[C@H](CO)[C@@H](O)[C@H](O)[C@H]2O)ccc1O [Peo-glc, peonidin-3-glucoside]
Found: 0.42 ± 0.23 ^a

Lookup: # query: Kic/Kiu of entry OC[C@H]1O[C@@H](Oc2cc3c(O)cc(O)cc3[o+]c2-c2cc(O)c(O)c(O)c2)[C@H](O)[C@@H](O)[C@@H]1O [Dpd-glc, delphinidin-3-glucoside]
Found: 0.34 ± 0.24 ^a
